// provenance: ChEMBL document CHEMBL5126557

EXPERIMENTAL_PROTOCOL: Selectivity index, ratio of CC50 for human TZM-bl cells to IC50 for IC50 for antiviral activity against HIV-1 89.6 infected in human TZM-bl cells
Type: toxicity, cell-based
CONDITION_PARAMETERS: read-out: Ratio CC50/IC50
Listed here are compounds together with their documented selectivity ratio.

[
  {
    "CPD_SMILES": "CC(C)C[C@H](NC(=O)CCCCCCCNC(=O)[C@]12CCC(C)(C)C[C@H]1[C@H]1C(=O)C[C@@H]3[C@@]4(C)CC[C@H](O)C(C)(C)[C@@H]4CC[C@@]3(C)[C@]1(C)CC2)[C@@H](O)CC(=O)O",
    "selectivity ratio": 328
  },
  {
    "CPD_SMILES": "CC(C)C[C@H](NC(=O)CCCCCCCNC(=O)[C@]12CC[C@@H](C)[C@H](C)[C@H]1C1=CC[C@@H]3[C@@]4(C)CC[C@H](O)C(C)(C)[C@@H]4CC[C@@]3(C)[C@]1(C)CC2)[C@H](O)CC(=O)O",
    "selectivity ratio": 65
  },
  {
    "CPD_SMILES": "CC(C)C[C@H](NC(=O)CCCCCCCNC(=O)[C@]12CCC(C)(C)C[C@H]1C1=CC[C@@H]3[C@@]4(C)CC[C@H](O)C(C)(C)[C@@H]4CC[C@@]3(C)[C@]1(C)CC2)[C@H](O)CC(=O)O",
    "selectivity ratio": 26
  },
  {
    "CPD_SMILES": "CC(C)C[C@H](NC(=O)CCCCCCCNC(=O)[C@]12CC[C@@H](C)[C@H](C)[C@H]1C1=CC[C@@H]3[C@@]4(C)CC[C@H](O)C(C)(C)[C@@H]4CC[C@@]3(C)[C@]1(C)CC2)[C@@H](O)CC(=O)O",
    "selectivity ratio": 27
  }
]
